Every entry's value here was drawn from a melting point compilation (Tetko et al.; mined from patent text by program, amines drawn as free bases though some values may be those of a salt).

OUTCOME_MEASURE: melting point

// solved cases for melting point follow
CC(C)C(=O)Nc1c(OCc2ccccc2)cc(Br)cc1[N+](=O)[O-]; 197 to 198 °C
CSc1nn2c(O)cc(CN3CCN(C)CC3)nc2c1S(=O)(=O)c1ccccc1; > 220 °C
CC(=O)c1cccc2c1CCc1ccccc1C2=O; 65 to 68 °C
COC(=O)C=C1CCOc2ccc(Cl)cc21; 113 to 115 °C
Cc1cccc(C)c1NC(=O)CCCSc1cc(C(C)(C)C)c(O)c(C(C)(C)C)c1; 140 °C

melting point reading for COc1cc(OC)c2c(=O)[nH]c(-c3ccc4[nH]c(CN(C)C)cc4c3)nc2c1 : 187 to 188 °C

melting point reading for Clc1ccccc1CSc1nnc(-c2ccc3c(c2)CCO3)o1 : 140 to 141 °C

melting point reading for COCC(=O)Nc1nc(NC(=O)COC)nc(NC2CC2)n1 : 175 to 180 °C

melting point reading for COc1cc(COc2nn(-c3ccc(C(F)(F)F)cc3)cc2/C=C/CO)ccc1OCc1nc(-c2ccccc2)oc1C : 118 to 119 °C

melting point reading for CCOc1cc(C=O)cc2c1OC(C)(C)C2 : 33 to 36 °C

====

Measured melting point of individual entries

// solved cases for melting point follow
COC(=O)c1cn(C2CC2)c2nc(C)ccc2c1=O; 204 to 205 °C
CC(=O)OCc1nn(C(C)=O)c2cccc(OCc3ccccc3)c12; 99 to 100 °C
CN1CCN(CCCNc2nc(N)c(C(=O)c3ccc(Cl)s3)s2)CC1; 184 °C

Pending compound:
melting point reading for CCCCCCCCCCCCCCCCC[C@@H]1OC[C@@H](COCCCCCCCCOS(=O)(=O)c2ccc(C)cc2)O1 (relative stereo) : 45.9 to 50.8 °C

====

OUTCOME_MEASURE: melting point

melting point reading for O=c1[nH]c2c(n1-c1ccccc1)CCCC2 : 220 °C

====

OUTCOME_MEASURE: melting point

melting point reading for C[Si](C)(C)C#Cc1cccc2ccccc12 : 41 to 43 °C

====

Measured melting point of individual entries

// solved cases for melting point follow
C=C1C=CC=C1Cc1ccc(O)cc1; 143 to 144 °C
Nc1nc2c(s1)CCCc1ccc(F)cc1-2; 270 °C

melting point reading for O=[N+]([O-])c1cccc([N+](=O)[O-])c1F : 50 °C

melting point reading for O=CN1CCN(CCSc2nc3ccccc3[nH]2)CC1 : 146 to 148 °C

====

Measured melting point of individual entries

// solved cases for melting point follow
O=c1n(CCCN2CC=C(c3c[nH]c4ccccc34)CC2)nc2ccccn12; 173 °C
O=S1(=O)NC(C2CCCCC2)Nc2ccc(-c3cccc(O)c3)cc21 (stereo not given); 238 to 246 °C
CN(C)C(=N)Nc1ccccc1-c1ccc(Cl)cc1; 150 to 152 °C
COc1cc(C2=CCN(S(=O)(=O)C(C)(C)C(=O)NO)CC2)ccc1-c1ccccc1; 156 to 158 °C
CN(C)C=C1CSc2ccc(Cl)cc2C1=O; 126 to 127 °C

melting point reading for CC(C)(C)OC(=O)[C@H]1CC[C@@H](c2ccccn2)N1C(=O)CNC(=O)Nc1cccc(C(=O)O)c1 (racemic) : 174 °C

melting point reading for COc1cc2c(cc1OC)C(Oc1ccccc1)CN(CCCOc1ccccc1)CC2 (stereo not given) : 95 to 100 °C

melting point reading for CCCCCCCCOc1ccc2cc(C(=O)O)ccc2c1 : 150 to 153 °C

melting point reading for COc1ccc2c(c1)Sc1ccc(SC)cc1C(Cl)C2 (stereo not given) : 120 to 123 °C

melting point reading for CC(CCc1cc2cccnc2n(-c2cccc(N)c2)c1=O)c1ccncc1 (stereo not given) : 83 to 91 °C

====

OUTCOME_MEASURE: melting point

melting point reading for CN(Cc1cccc(-c2ccc(O)cc2)c1)C(=O)OC(C)(C)C : 174 °C

melting point reading for CNC(=O)N(OC)c1ccc(Oc2ccc3sncc3c2)c(C(F)(F)F)c1 : 197 °C

melting point reading for COC(=O)[C@H](Cc1ccccc1)NC(=O)c1ccc([N+](=O)[O-])cc1 : 115 to 116 °C

====

Measured melting point of individual entries

// solved cases for melting point follow
CN(C)CCOc1ccc2[nH]c(C(=O)N3CC(CCl)c4c3cc(N)c3ccccc43)cc2c1 (stereo not given); > 250 °C
CC(C)Oc1ccc(NC(=S)NCc2ccoc2)cc1; 89 to 90 °C
CC(C)(C)O[C@@H]1C[C@@H](CO)N(S(=O)(=O)c2ccc3ccccc3c2)C1; 124 to 125 °C
CN1CCC23c4c5ccc(OCCCCN)c4CC1C2C=CC(O)C3O5 (stereo not given); 140 to 142 °C

Pending molecule:
melting point reading for CC(=NO)C(C)(C)NCCN(C)NC(C)(C)C(Cn1ccnc1[N+](=O)[O-])=NO : 156 to 158 °C

====

OUTCOME_MEASURE: melting point

CCC(=O)Oc1cc2c(s1)CCN(C(C(=O)C1CC1)c1ccccc1F)C2 (stereo not given); 101 to 102 °C
CC(=O)OC(C)C(=O)Nc1ccc(C2=NNC(=O)CC2C)cc1 (stereo not given); 198 to 200 °C
CCCCCCCCCCOc1cc(OCCCCCCCCCC)cc(N(CC(=O)O)CC(=O)O)c1; 110 to 114 °C
CCN1C(=O)N(c2cc(OC)cc(OC)c2Cl)Cc2cnc(SC)nc21; 189 to 191 °C
COc1ccc2[nH]c(C(=O)C3(c4ccc(Cl)cc4)CCCC3)cc2c1; 157 to 159 °C

melting point reading for CCCCCCCCCCCCc1ccc2nc3c(c(O)c2c1)CCCC3 : 225 to 226 °C

melting point reading for COc1ccc(C2SCCS2)cc1 : 62 to 63 °C

melting point reading for COCCCc1cc(N(C)Cc2sc(-c3ccc(C(F)(F)F)cc3)nc2C)ccc1OCC(=O)O : 142 to 143 °C

melting point reading for O=C(O)CCC(=O)Nc1cccc2ccccc12 : 167 to 169 °C

melting point reading for O=C(O)CCCCCc1nn(-c2ccccc2)c2c1CCC2 : 95 to 96 °C

====

Measured melting point of individual entries

// solved cases for melting point follow
CCOC(=O)C(=O)Nc1ccc2ccccc2c1NC(=O)C(=O)OCC; 150 to 151 °C
COc1ccc(CN2CCN(C(=S)C3(C)CCc4c(C)c(O)c(C)c(C)c4O3)CC2)c(OC)c1OC (stereo not given); 124 to 125 °C
NN(C(=O)c1ccc(Cl)c(S(N)(=O)=O)c1)c1ccc(C(=O)c2ccccc2)cc1[N+](=O)[O-]; 148 °C
CCOc1ccccc1OS(N)(=O)=O; 62 to 65 °C
CC(C)c1ccc(-n2ncc(C(=O)NC34CC5CC(CC(C5)C3)C4)c2OCCN2CCOCC2)cc1; 132 to 134 °C

melting point reading for COCCNC(=O)c1cc2c(ccc3cnn(C[C@H](C)N)c32)o1 : 75 to 76 °C

melting point reading for CN1CCN(c2ccc(NC(=O)C3(C)CC3)cc2C(F)(F)F)C1=O : 90 to 91 °C

melting point reading for CCCn1c(-c2ccc3c(c2)OCO3)nc2ccccc21 : 77.5 to 78 °C

melting point reading for CCN(CC)C(=O)/C=C/CSc1nc(N)cc(Cl)n1 : 143 to 145 °C

melting point reading for CCN(Cc1cc(Cl)ccc1OCC1CC1)c1ccc(C(=O)NS(=O)(=O)C(F)(F)F)nn1 : 150 °C

====

Measured melting point of individual entries

// solved cases for melting point follow
CCN(CC)C(C)COc1ccc(NC(=O)C#Cc2ccc(Cl)cc2Cl)cc1 (stereo unspecified); 70 to 72 °C
COC(=O)c1sc2c(c1N)c1ccccc1c(=O)n2-c1ccccc1Br; 214 to 216 °C
CCOc1ccc(-c2ccc(Cl)nn2)c(OCC(O)CNC(C)(C)C)c1 (stereo unspecified); 115 to 117 °C
COCCSc1ccccc1S(N)(=O)=O; 127 to 130 °C
O=C(O)c1ccc(S(=O)(=O)C(Br)(Br)Br)cc1; > 305 °C
COc1cccc(CNC(=O)c2nc3cccc(OCCO)c3c(=O)[nH]2)c1; 173 to 174 °C
COc1ccccc1CNc1ccc2cc(Nc3ccccn3)ccc2n1; 134 °C
Cc1coc(C)c1-c1nc2ccc(C(=O)c3ccccc3)cc2[nH]1; 203 to 208 °C
CCc1nc2c(N)nc3cccnc3c2n1CC1(O)CCN(C(=O)OC(C)(C)C)CC1; 233 to 235 °C
CCC#CC(C)(C)NC(=O)C(CC)Oc1cncc(Br)c1 (stereo unspecified); 90 to 92 °C

Pending compound:
melting point reading for COC(=O)Cc1sc(F)c(N=c2sc(=O)n3n2CCCC3)c1Cl : 99 to 101 °C

====

OUTCOME_MEASURE: melting point

COc1ccc2ccc3c(c2c1)CCC(=O)O3; 100 to 101 °C
O=C(O)CSCC(Cc1ccccc1)NCCS (stereo unspecified); 201 °C
c1ccc(C2c3ccccc3-c3ncncc32)cc1 (stereo unspecified); 148 to 150 °C
CCOC(=O)c1ncn2c1CNc1ccccc1-2; 248 to 250 °C
NS(=O)(=O)c1ccc(-n2nc(C(F)(F)F)cc2OS(=O)(=O)C(F)(F)F)cc1; 114 to 115 °C
CC(C)(O)C1CCN(S(=O)(=O)c2cc(C#N)ccc2Oc2cc(Cl)ccc2Cl)CC1; 221 to 225 °C
O=C(O)Cc1ccc2c(c1)CCc1ccccc1C2=O; 154 °C
CCN(CC)c1nc2ncnn2c2c1cnc1c2cnn1CC; 215 to 217 °C

melting point reading for O=C(OCc1ccccc1)C1C(=O)N(Cc2ccc(Cl)c(Cl)c2)C(=O)c2cccn21 (stereo unspecified) : 104 to 106 °C

melting point reading for NC(C(=O)O)c1ccc(C(=O)O)cc1F (stereo unspecified) : 250 to 255 °C

melting point reading for O=[N+]([O-])c1cc(I)ccc1Nc1cccc(-n2cccn2)c1 : 165 to 166 °C
